Molecular target: amylin receptor 1 ECD with the E123A mutation (Homo sapiens, UniProt O60894+P30988, E123A)
Construct: pHLsec/hRAMP1.24–111-(GSA)3-hCTR.34–141.E123A-H6 (D-pJJ004); H6 (hexahistidine) (C); made in house; host or cells: HEK293 (transient transfection, secreted, N-glycosylated)
Sequence (O60894 24-111): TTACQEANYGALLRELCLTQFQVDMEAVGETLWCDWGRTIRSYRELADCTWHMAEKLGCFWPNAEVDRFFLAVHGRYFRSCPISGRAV
Sequence (P30988 34-141 E123A): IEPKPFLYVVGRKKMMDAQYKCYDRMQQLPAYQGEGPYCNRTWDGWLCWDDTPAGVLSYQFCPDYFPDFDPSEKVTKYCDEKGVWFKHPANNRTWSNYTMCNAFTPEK
Assay: Competition binding assay with non-labeled sCT(22–32), E123A
Details: competition with 10 nM FITC-sCT(22–32), receptor ECD E123A 365 nM, 1 hour, anisotropy
pKi: −log10 of the molar value. Where no end group is shown, it is not given here.
recorded metric: pKi

substance="YPRTNTGSGTP-NH2 [non-labeled sCT(22–32)]" recorded_metric=pKi assay_result=5.60
